# Assayed Target: Caspase 1 (CASP1) (Homo sapiens, UniProt P29466)
# Sequence (P29466 whole entry): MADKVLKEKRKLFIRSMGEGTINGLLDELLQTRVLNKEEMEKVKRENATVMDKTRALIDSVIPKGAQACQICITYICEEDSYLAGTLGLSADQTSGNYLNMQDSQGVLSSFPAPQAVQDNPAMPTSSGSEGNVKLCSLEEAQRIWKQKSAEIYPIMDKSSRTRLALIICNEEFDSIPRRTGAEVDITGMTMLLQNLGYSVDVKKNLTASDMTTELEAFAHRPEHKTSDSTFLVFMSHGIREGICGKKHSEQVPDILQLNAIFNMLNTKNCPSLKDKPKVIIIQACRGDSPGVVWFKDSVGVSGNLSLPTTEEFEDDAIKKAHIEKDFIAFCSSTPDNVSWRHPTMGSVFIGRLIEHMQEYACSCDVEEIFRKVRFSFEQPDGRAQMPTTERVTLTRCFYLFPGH
# Sequence (Q96P20 whole entry R262W partner): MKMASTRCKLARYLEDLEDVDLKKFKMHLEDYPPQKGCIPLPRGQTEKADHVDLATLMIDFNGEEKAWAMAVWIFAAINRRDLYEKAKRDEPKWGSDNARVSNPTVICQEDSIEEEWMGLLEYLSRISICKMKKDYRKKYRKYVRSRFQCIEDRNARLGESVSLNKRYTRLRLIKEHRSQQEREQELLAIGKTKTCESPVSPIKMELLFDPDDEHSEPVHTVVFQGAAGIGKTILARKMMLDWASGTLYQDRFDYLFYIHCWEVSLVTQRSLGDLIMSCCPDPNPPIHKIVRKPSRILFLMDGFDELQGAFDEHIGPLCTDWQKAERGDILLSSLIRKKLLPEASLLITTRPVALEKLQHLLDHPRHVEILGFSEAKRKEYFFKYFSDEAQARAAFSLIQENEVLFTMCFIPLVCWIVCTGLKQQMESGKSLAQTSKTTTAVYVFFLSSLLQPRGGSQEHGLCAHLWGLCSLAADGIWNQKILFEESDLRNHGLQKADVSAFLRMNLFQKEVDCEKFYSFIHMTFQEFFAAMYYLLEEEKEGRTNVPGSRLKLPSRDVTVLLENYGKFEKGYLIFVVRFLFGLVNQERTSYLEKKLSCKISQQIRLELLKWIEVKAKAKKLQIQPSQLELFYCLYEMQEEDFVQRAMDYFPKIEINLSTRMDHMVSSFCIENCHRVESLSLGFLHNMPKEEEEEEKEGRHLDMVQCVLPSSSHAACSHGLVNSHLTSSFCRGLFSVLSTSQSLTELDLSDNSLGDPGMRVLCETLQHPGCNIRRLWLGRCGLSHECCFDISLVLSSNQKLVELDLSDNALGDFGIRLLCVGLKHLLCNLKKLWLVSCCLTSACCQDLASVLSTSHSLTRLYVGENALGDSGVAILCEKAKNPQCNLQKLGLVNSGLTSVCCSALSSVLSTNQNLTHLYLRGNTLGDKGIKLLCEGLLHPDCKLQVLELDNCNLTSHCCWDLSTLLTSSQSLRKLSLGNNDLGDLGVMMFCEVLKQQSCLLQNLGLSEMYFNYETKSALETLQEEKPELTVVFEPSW
# Sequence (Q9ULZ3 whole entry partner): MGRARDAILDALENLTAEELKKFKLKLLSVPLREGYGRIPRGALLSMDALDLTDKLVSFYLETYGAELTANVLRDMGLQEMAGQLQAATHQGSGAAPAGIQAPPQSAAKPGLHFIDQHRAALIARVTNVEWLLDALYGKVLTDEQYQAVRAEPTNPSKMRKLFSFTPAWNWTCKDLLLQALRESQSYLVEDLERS
# Procedure Summary: live-cell GFP caspase-1
pIC50: −log10 of the molar value.

# Compound, Assayed Target, pIC50
records = [
    ("CC(C)(C)[C@H](NC(=O)c1ccc(N)c(Cl)c1)C(=O)N1CCC[C@H]1C(=O)N[C@H](C=O)CC(=O)O [VRT-043198]", "Caspase 1 (CASP1) (Homo sapiens, UniProt P29466)", 5.33),
]
